B1: TRIM15 (parent)
chain: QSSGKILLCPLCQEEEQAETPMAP

- Variants of: B1
- Assay info: protein stability index of a GFP-peptide fusion (GPS, HEK-293T) (PSI 1-6); higher = more stable;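 note: lentivirally expressed fusions sorted by FACS into six bins by GFP to DsRed ratio, PSI derived from sequencing read proportions per bin multiplied by bin number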
- Conditions used: c terminus: a fixed tail appended
Param threshold (3) applies to protein stability index; output satisfied when value >= threshold, not satisfied when value < threshold.

Var	Assigned category
K5Q	satisfied
Q1Y	not satisfied
E16V	not satisfied
C9S	satisfied
C12L	satisfied
E16I	not satisfied
S3R	satisfied
C9T	satisfied
Q13S	satisfied
P21N	satisfied
T20S	satisfied
L11G	satisfied
A23H	satisfied
E19S	not satisfied
A18E	satisfied
P10V	not satisfied
G4R	satisfied
L7I	satisfied
E19I	not satisfied
S2R	satisfied
K5W	not satisfied
C12Y	satisfied
Q13F	not satisfied
P21F	satisfied
P21L	not satisfied
L11N	satisfied
T20Q	satisfied
Q1E	satisfied
T20H	satisfied
S3C	not satisfied
L8P	satisfied
T20N	satisfied
P24C	not satisfied
E14M	not satisfied
T20I	satisfied
Q1D	satisfied
E15L	not satisfied
Q17D	satisfied
A23T	satisfied
P21E	satisfied
L7T	satisfied
C12I	satisfied
E14F	not satisfied
A23E	satisfied
T20K	satisfied
P24T	satisfied
E15V	not satisfied

Source: the supplement of paper PMC10567573
